Relative binding (%) with Mutant Ang2 compared to the binding with native Ang2 values for the binders below.
# study.system: T1, Ang2 with P452 mutated with alanine, tagged with FLAG (human, UniProt O15123 19-496, limits assumed)
# T1 sequence: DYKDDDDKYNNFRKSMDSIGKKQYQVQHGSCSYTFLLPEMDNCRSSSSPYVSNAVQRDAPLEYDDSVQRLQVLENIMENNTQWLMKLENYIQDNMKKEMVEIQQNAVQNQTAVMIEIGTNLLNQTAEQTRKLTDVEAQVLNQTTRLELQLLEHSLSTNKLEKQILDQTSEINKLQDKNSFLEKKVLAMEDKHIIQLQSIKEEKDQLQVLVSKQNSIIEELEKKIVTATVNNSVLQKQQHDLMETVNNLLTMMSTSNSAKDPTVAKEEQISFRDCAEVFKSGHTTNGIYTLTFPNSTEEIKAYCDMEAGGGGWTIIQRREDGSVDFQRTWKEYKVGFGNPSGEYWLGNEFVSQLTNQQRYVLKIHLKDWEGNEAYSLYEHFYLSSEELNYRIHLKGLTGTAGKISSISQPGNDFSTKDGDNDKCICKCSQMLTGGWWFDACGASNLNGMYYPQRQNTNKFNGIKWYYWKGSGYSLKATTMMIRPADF
# test.description: ELISA, scFv coated, 250 ng FLAG-tagged Ang2 mutant, anti-FLAG-HRP
observation.type: Relative binding (%) with Mutant Ang2 compared to the binding with native Ang2

binder	endpoint.result
SAIT-ANG-2-AB-2-E6 (scFv form) (scFv, V domains shown, scFv from a phage display library, partly purified from E. coli periplasm on Ni-NTA and detected with anti-HA) VH: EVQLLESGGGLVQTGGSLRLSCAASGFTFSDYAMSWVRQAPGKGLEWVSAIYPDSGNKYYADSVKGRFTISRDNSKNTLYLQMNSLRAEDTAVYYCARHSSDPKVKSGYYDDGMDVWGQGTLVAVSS VL: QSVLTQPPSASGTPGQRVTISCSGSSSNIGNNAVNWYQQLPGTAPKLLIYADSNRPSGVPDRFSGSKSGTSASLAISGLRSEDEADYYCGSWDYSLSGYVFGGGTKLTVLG	24
SAIT-ANG-2-AB-4-F11 (scFv form) (scFv, V domains shown, scFv from a phage display library) VH: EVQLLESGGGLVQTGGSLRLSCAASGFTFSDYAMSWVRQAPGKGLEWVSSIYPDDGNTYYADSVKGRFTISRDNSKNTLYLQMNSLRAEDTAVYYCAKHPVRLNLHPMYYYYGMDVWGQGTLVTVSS VL: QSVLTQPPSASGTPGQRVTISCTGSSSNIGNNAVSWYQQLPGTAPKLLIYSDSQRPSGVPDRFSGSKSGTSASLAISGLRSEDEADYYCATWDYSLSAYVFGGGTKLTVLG	91.6
